# System: K562
# Test Method Notes: Growth inhibition of human K562 cells assessed as cell growth at 10^-7 M by sulforhodamine B assay
# Format: functional
# Measurement Parameters: read-out: Activity
Would you kindly list growth at 0.1 µM for each of these compounds?
Write it as a number; the unit % goes unstated.

growth at 0.1 µM recorded for this compound, CC1(C)C[C@@H](O)[C@]2(C(=O)O)CC[C@]3(C)C(=CC[C@@H]4[C@@]5(C)C/C(=C\C=C\c6ccccc6)C(=O)C(C)(C)[C@@H]5CC[C@]43C)[C@@H]2C1 , is 102

The measured growth at 0.1 µM associated with C/C=C(/C)C(=O)O[C@@H]1CC(C)(C)C[C@H]2C3=CC[C@@H]4[C@@]5(C)CCC(=O)C(C)(C)[C@@H]5CC[C@@]4(C)[C@]3(C)CC[C@@]12C(=O)O [LANTADENE A] reads 100

According to the records, this compound CC(C)=CC(=O)O[C@@H]1CC(C)(C)C[C@H]2C3=CC[C@@H]4[C@@]5(C)CC[C@H](O)C(C)(C)[C@@H]5CC[C@@]4(C)[C@]3(C)CC[C@@]12C(=O)O [Reduced Lantadene B] displays growth at 0.1 µM of 91

The compound C/C=C(/C)C(=O)O[C@@H]1CC(C)(C)C[C@H]2C3=CC[C@@H]4[C@@]5(C)CC[C@H](O)C(C)(C)[C@@H]5CC[C@@]4(C)[C@]3(C)CC[C@@]12C(=O)O [Reduced Lantadene A] showed growth at 0.1 µM equal to 105

For this compound ( CC(C)=CC(=O)O[C@@H]1CC(C)(C)C[C@H]2C3=CC[C@@H]4[C@@]5(C)CCC(=O)C(C)(C)[C@@H]5CC[C@@]4(C)[C@]3(C)CC[C@@]12C(=O)O ), measured growth at 0.1 µM is 95

---

Give TGI for every item shown.
# Tested on: UACC-257
# Test Method Notes: Growth inhibition of human UACC257 cells by sulforhodamine B assay
# Format: functional
# Measurement Parameters: read-out: pTGI (converted)

The recorded TGI for entry CC(C)=CC(=O)O[C@@H]1CC(C)(C)C[C@H]2C3=CC[C@@H]4[C@@]5(C)CCC(=O)C(C)(C)[C@@H]5CC[C@@]4(C)[C@]3(C)CC[C@@]12C(=O)O equals 50.1 µM

Measured TGI of C/C=C(/C)C(=O)O[C@@H]1CC(C)(C)C[C@H]2C3=CC[C@@H]4[C@@]5(C)CCC(=O)C(C)(C)[C@@H]5CC[C@@]4(C)[C@]3(C)CC[C@@]12C(=O)O [LANTADENE A] : > 100 µM

Input CC(C)=CC(=O)O[C@@H]1CC(C)(C)C[C@H]2C3=CC[C@@H]4[C@@]5(C)CC[C@H](O)C(C)(C)[C@@H]5CC[C@@]4(C)[C@]3(C)CC[C@@]12C(=O)O [Reduced Lantadene B] . Output TGI: 45.7 µM

The molecule CC1(C)C[C@@H](O)[C@]2(C(=O)O)CC[C@]3(C)C(=CC[C@@H]4[C@@]5(C)C/C(=C\C=C\c6ccccc6)C(=O)C(C)(C)[C@@H]5CC[C@]43C)[C@@H]2C1 showed TGI equal to 8.91 µM

So, C/C=C(/C)C(=O)O[C@@H]1CC(C)(C)C[C@H]2C3=CC[C@@H]4[C@@]5(C)CC[C@H](O)C(C)(C)[C@@H]5CC[C@@]4(C)[C@]3(C)CC[C@@]12C(=O)O [Reduced Lantadene A] ? Its TGI was 4.9 µM
